testSystem: M. tuberculosis LeuRS editing domain (LeuRSMtb; pMtbED) (Mycobacterium tuberculosis)
Sequence (P9WFV1 311-512 limits assumed): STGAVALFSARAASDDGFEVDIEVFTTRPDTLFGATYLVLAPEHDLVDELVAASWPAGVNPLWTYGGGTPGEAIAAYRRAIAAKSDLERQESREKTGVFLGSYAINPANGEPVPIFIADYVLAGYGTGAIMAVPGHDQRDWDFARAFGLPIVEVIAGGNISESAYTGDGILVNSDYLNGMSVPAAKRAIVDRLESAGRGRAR
experimentDescription: isothermal titration calorimetry
recordedEndpoint: Kd (µM)
Answers are plain numbers, in µM.

Input line: Would you mind telling me what Kd value was observed for NC[C@H]1OB(O)c2c(OCCCO)cccc21 [epetraborole] ?
Output line: 10

Just for reference, paper PMC8535176 is where these values come from.
